Each record here notes measured IC50.
target: Serum paraoxonase/arylesterase 1 (Homo sapiens); test: Paraoxonase Activity Assay; details: pH 10.5
Sequence (P27169 whole entry): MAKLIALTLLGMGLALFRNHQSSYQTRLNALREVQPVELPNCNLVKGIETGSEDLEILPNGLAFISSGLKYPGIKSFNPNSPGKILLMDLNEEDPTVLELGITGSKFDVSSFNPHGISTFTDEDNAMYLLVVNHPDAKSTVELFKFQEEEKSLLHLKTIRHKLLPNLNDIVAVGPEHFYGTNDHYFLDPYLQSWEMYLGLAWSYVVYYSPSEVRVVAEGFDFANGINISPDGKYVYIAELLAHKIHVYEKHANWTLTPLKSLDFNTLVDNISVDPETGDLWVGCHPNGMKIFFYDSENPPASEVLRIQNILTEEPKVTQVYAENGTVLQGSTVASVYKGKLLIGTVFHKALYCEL

molecule: CC(=O)O[C@@]12CO[C@@H]1C[C@H](O)[C@@]1(C)C(=O)[C@H](O)C3=C(C)[C@@H](OC(=O)[C@H](O)[C@@H](NC(=O)OC(C)(C)C)c4ccccc4)C[C@@](O)([C@@H](OC(=O)c4ccccc4)[C@H]21)C3(C)C
experimental.target: Serum paraoxonase/arylesterase 1 (Homo sapiens)
IC50, µM: 665
//
molecule: O=P1(NCCCl)OCCCN1CCCl (centres undefined)
experimental.target: Serum paraoxonase/arylesterase 1 (Homo sapiens)
IC50, µM: 23300
//
molecule: COc1cc([C@@H]2c3cc4c(cc3[C@@H](O[C@@H]3O[C@@H]5CO[C@@H](C)O[C@H]5[C@H](O)[C@H]3O)[C@H]3COC(=O)[C@H]23)OCO4)cc(OC)c1O
experimental.target: Serum paraoxonase/arylesterase 1 (Homo sapiens)
IC50, µM: 226
//
molecule: CC(=O)O[C@H]1C(=O)[C@@]2(C)[C@H]([C@H](OC(=O)c3ccccc3)[C@]3(O)C[C@H](OC(=O)[C@H](O)[C@@H](NC(=O)c4ccccc4)c4ccccc4)C(C)=C1C3(C)C)[C@]1(OC(C)=O)CO[C@@H]1C[C@@H]2O
experimental.target: Serum paraoxonase/arylesterase 1 (Homo sapiens)
IC50, µM: 42

* * *

biological target: Serum paraoxonase/arylesterase 1 (Homo sapiens); experiment: Paraoxonase Activity Assay; conditions: pH 10.5
reported.property: Ki (µM)

molecule: CC(=O)O[C@H]1C(=O)[C@@]2(C)[C@H]([C@H](OC(=O)c3ccccc3)[C@]3(O)C[C@H](OC(=O)[C@H](O)[C@@H](NC(=O)c4ccccc4)c4ccccc4)C(C)=C1C3(C)C)[C@]1(OC(C)=O)CO[C@@H]1C[C@@H]2O
value.reported: 16.5
//
molecule: CC(=O)O[C@@]12CO[C@@H]1C[C@H](O)[C@@]1(C)C(=O)[C@H](O)C3=C(C)[C@@H](OC(=O)[C@H](O)[C@@H](NC(=O)OC(C)(C)C)c4ccccc4)C[C@@](O)([C@@H](OC(=O)c4ccccc4)[C@H]21)C3(C)C [CID148124]
value.reported: 291
//
molecule: COc1cc([C@@H]2c3cc4c(cc3[C@@H](O[C@@H]3O[C@@H]5CO[C@@H](C)O[C@H]5[C@H](O)[C@H]3O)[C@H]3COC(=O)[C@H]23)OCO4)cc(OC)c1O
value.reported: 131
//
molecule: O=P1(NCCCl)OCCCN1CCCl (centres undefined)
value.reported: 8970

Attribution: BindingDB's records for doi:10.1111/cbdd.12746
